Molecular target: sGC α1/β1 heterodimer stably expressed in CHO-K1 cells (CHO-K1/sGC) (Homo sapiens, UniProt Q02108+Q02153)
Construct: expressed in transfected cells
Sequence (Q02108 whole entry): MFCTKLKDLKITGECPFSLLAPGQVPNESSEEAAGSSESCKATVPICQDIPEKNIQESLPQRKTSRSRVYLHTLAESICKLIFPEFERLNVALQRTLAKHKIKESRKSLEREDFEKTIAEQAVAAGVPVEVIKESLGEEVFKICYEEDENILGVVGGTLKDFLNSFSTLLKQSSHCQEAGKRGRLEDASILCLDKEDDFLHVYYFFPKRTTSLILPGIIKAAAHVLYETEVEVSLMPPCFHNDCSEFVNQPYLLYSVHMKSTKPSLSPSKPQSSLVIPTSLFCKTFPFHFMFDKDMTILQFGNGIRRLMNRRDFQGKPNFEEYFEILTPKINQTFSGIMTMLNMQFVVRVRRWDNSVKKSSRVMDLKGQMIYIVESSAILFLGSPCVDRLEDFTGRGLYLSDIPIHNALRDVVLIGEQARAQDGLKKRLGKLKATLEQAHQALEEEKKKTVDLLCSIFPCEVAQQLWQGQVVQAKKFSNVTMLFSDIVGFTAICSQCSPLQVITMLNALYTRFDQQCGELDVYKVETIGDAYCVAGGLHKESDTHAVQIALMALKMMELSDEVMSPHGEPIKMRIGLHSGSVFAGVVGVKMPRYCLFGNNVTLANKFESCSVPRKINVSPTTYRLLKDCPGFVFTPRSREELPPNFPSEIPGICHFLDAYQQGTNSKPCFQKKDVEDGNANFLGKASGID
Sequence (Q02153 whole entry): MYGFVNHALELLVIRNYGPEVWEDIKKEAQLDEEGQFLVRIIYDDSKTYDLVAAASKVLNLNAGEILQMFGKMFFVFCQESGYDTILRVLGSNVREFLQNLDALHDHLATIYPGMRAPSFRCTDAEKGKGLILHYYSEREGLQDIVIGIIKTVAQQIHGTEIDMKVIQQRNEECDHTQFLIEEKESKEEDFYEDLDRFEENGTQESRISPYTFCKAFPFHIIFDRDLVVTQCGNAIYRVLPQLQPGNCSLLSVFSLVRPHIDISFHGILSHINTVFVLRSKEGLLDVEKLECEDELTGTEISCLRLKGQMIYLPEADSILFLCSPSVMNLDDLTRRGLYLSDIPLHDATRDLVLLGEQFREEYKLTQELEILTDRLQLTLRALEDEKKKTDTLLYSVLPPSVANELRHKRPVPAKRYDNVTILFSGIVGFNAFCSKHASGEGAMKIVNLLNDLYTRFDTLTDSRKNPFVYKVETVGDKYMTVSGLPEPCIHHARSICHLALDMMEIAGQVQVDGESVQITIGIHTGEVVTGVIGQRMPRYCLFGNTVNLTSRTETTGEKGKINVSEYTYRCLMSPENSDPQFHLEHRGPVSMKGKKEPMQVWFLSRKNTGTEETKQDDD
Test: Cell-based sGC functional assay (CASA assay), cGMP generation by HTRF
Details: CHO-K1, maximum cGMP production of Compound A set to 100% activation; read-out: % Act. (percent activation relative to Compound A)
metricName: Emax (%)

# compound, Emax [%]
measured = [
    ("CC1(c2ccc(Cl)cc2)C(=O)Nc2nc(-c3cn4ccnc4c(NCC4CC(F)(F)C4)n3)nc(N)c21 (stereo not drawn) [Example 58A]", 109),
    ("CC1(C)C(=O)Nc2nc(-c3cn4ccnc4c(Oc4cc(F)ccc4F)n3)nc(N)c21 [Example 26]", 105),
    ("CC1(c2ccccc2)C(=O)Nc2nc(-c3cn4ccnc4c(Oc4ccccc4)n3)nc(N)c21 (stereo not drawn) [Example 10B]", 127),
    ("CC1(c2ccc(Cl)cc2)C(=O)Nc2nc(-c3cn4ccnc4c(NCC4CCCCO4)n3)nc(N)c21 (single isomer, unassigned; fast eluting) [Example 71A]", 96),
    ("CC1(c2ccc(F)cc2)C(=O)Nc2nc(-c3cn4ccnc4c(Oc4cccc(F)c4)n3)nc(N)c21 (stereo not drawn) [Example 1A]", 110),
    ("CCCOc1nc(-c2nc(N)c3c(n2)NC(=O)C3(C)c2ccc(Cl)cc2)cn2ccnc12 (stereo not drawn) [Example 49A]", 117),
]
